- SYSTEM_TESTED: PI3Kα (Homo sapiens (Human))
- Sequence (P42336 whole entry): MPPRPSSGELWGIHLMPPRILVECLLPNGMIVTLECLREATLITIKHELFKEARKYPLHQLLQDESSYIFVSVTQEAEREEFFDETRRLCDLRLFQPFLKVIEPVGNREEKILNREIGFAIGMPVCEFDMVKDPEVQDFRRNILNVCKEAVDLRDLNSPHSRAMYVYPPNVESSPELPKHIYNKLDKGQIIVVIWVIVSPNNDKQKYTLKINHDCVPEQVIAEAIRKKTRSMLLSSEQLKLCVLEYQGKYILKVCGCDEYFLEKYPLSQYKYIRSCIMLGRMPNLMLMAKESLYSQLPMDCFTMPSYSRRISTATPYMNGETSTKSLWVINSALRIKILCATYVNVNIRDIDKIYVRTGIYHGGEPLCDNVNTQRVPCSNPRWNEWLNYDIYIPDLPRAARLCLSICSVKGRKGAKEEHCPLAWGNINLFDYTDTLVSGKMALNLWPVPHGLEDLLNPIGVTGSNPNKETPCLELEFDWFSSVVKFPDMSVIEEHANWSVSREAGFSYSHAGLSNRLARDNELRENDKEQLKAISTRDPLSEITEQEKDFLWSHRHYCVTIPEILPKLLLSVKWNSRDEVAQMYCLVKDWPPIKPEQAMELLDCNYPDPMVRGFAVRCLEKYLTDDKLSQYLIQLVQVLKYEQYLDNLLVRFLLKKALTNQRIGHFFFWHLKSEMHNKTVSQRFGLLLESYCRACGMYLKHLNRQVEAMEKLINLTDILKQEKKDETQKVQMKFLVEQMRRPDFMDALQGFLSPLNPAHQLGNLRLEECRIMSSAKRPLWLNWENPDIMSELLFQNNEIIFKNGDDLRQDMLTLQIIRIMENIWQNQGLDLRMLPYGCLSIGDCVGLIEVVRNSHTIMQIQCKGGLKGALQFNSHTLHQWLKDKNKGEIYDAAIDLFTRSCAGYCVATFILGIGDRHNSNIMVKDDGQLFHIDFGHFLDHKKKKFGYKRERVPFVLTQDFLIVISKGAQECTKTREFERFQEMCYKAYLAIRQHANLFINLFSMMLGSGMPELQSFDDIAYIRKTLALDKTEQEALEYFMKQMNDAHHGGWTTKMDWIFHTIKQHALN
- Sequence (P27986 whole entry partner): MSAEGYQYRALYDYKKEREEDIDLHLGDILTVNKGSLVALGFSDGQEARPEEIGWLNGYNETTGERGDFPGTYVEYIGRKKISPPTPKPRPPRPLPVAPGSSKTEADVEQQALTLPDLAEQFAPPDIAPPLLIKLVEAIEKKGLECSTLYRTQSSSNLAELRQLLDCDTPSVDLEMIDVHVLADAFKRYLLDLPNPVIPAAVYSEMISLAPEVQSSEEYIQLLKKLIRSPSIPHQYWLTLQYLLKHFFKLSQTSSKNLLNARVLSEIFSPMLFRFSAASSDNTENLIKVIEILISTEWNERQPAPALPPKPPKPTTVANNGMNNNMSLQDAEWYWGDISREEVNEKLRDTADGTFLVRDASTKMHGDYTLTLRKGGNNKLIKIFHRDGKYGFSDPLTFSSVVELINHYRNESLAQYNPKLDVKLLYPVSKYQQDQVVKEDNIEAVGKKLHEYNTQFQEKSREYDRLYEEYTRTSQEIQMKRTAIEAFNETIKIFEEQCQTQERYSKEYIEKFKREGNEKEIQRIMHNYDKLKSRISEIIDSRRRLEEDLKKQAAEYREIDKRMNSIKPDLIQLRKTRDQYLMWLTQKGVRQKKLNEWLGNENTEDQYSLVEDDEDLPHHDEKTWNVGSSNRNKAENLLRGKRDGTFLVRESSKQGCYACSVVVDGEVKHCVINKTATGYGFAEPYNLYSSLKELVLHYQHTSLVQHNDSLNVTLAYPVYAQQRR
- MEASUREMENT_PROTOCOL: Inhibition of PI3Kα (ADP-Glo kinase activity assay, ATP to ADP conversion)
- Type: biochemical
- SETTINGS: 25 μM PIP2:PS, 60 μM ATP, 30 min reaction, luminescence
Assign True to entries whose PI3Ka IC50 meets or exceeds 1 µM; assign False to the rest.

Sample answers from the record:
>  <SMI>
CC(C)(C)NC(=O)N1CC(S(=O)(=O)c2cc(-c3cnc(N)nc3)cc(N3CCOCC3)c2)C1

>  <SYSTEM_TESTED>
PI3Kα (Homo sapiens (Human))

>  <GROUP>
False

$$$$
>  <SMI>
Cc1cc(N)nnc1-c1cc(N2CCOCC2)cc(S(=O)(=O)Cc2ccc(F)cc2F)c1

>  <SYSTEM_TESTED>
PI3Kα (Homo sapiens (Human))

>  <GROUP>
True

$$$$
>  <SMI>
Nc1ccc(-c2cc(N3CCOCC3)cc(S(=O)(=O)[C@@H]3CCOC3)c2)cn1

>  <SYSTEM_TESTED>
PI3Kα (Homo sapiens (Human))

>  <GROUP>
False

$$$$

Let's switch to this molecule now.
Lookup: Please tell me: is the molecule Cc1ccc(S(=O)(=O)c2cc(-c3cnc(N)nc3)cc(N3CCOCC3)c2)cc1 at or over 1 µM in terms of PI3Ka IC50?
Found: True
